- EXPERIMENT SUMMARY: yeast display, Sf9 membrane polyspecificity reagent, FACS + sequencing; frameworks hold sequencing errors
METRIC NAME: polyreactivity (PSR sort gate)

ENTRY SEQUENCE: QVQLVESGGGLVQAGGSLSLSCAASGRTFKPYAMGWYRQAPGKERELVAVITSNGSSTYYADSVKGRFTISRDNAKNTVYLQMNSLKPEDTAVYYCATKLTYTLTSGAYAYDYWGQGTQVTVSS
polyreactivity (PSR sort gate): low polyreactivity
--
ENTRY SEQUENCE: QVQLVESGGGLVQAGGSLRLSCAASGSIFSTNAMGWYRQAPWKERELVAGISSDDSTYADSVKGRFTISRDNAKNTVNLQMNSLKPEDTAVYNCAAEDNWYNVGYYYRGQGTQVTVSS
polyreactivity (PSR sort gate): low polyreactivity
--
ENTRY SEQUENCE: QVQLVESGGGLVQAGGSLRLSCAASGRTFYLYAMGWYIQAPGKERELVAGISRSGGSTYYADSVKGRFTISRDNAKNTVYLQMNSLKPEDTAVYYCAAGYYYWGQGTQVTVSS
polyreactivity (PSR sort gate): high polyreactivity
--
ENTRY SEQUENCE: QVQLVESGGGLVQAGGSLRLSCASSGRIFRYYDMGWYRQAPGKERELVASITSGGSTNYADSVKGRFTISRDNAKNTVYLQMNSLKPEDTAVYYCAARWGYARANGYDYWGQGTQVTVSS
polyreactivity (PSR sort gate): high polyreactivity
--
ENTRY SEQUENCE: QVQLVESGGGLVQAGGSLRLSCAASGSIFFYYAMGWYRQATGKERELVAAISIAGSTNYADSVKGRFTISRDNAKNTVYLQMNSLKPEDTAVYYCAKEYRWGQSQLDYWGQGTQVTVSS
polyreactivity (PSR sort gate): low polyreactivity

I would be grateful if you could provide polyreactivity (PSR sort gate) for each of the following entries.
1. QVQLVESGGGLVQAGGSLRLSCAASGLIFTYNAMGWYRQAPGKERELVASISWGGGSTYYADSVKGRFTISRDNAKHTVYLQMHSLKPEDTAVYYCNAKFKTVHTYGDTIFDRYDYWGQGTQVTVSS
2. QVQLVESGGGLVQAGGSLRLSCAASGRIFSVNAMGWYRQAPGTEREFVAAISWSGSSTYYADSVKGRFTSSRDNAKITVYLQMNSLKPEDTAVYYCNADIDFGTREVYYWGQGTQVTVSS
3. QVQLVESGGGLVQAGGSLRLSCAASGRTFSGYAMGWYRQAPGKERELVAAIDRGDGTNYADSVKGRYTISRDNAKNTVYLQMNSQIPEDTAVYYCAGDYSDGSTSLTYTGFVYWGQGTQVTVSS

1: low polyreactivity; 2: low polyreactivity; 3: low polyreactivity

* * *

- EXPERIMENT SUMMARY: yeast display, Sf9 membrane polyspecificity reagent, FACS + sequencing; frameworks hold sequencing errors
METRIC NAME: polyreactivity (PSR sort gate)

ENTRY SEQUENCE: QVQLVESVGGLDQAGGSLRLSCAASGFTFQYYAMGWYRQAPGKERELVAAITSNGGGTYYADSVKGRFTISRDNAKNTVYLQMNSLKPEDTAVYYCAADRWYSMDYWGQGTQVTVSS
METRIC NAME: polyreactivity (PSR sort gate)
RECORDED VALUE: high polyreactivity
--
ENTRY SEQUENCE: QVQLVESGGGLVQAGGSLRLSCAASGSIFKGYTMGWYRQAPGNERELVASMRPRGGSTYYADSVKGRFTMSRHNAKNPVDLQMNSLKPEDTAVYYCAAPWGGFAGQERKYDYWGQGTQVTVSS
METRIC NAME: polyreactivity (PSR sort gate)
RECORDED VALUE: low polyreactivity
--
ENTRY SEQUENCE: QVQLVESGGGLVQAGGSLRLSCAASGSIFEWYAMGWYRQAPGKERELVADISSVGSTYYADSVKGRFTISRDNAKNTVYLQMNSLKPEDTAVYYCNTTYIIWYDSWGQGTQVTVSS
METRIC NAME: polyreactivity (PSR sort gate)
RECORDED VALUE: low polyreactivity
--
ENTRY SEQUENCE: QVQLVESVGGLVQAGGSLRLSCAASGRILKRNAMGWYRQAPGKERELVAAISWSTGTTYYADSVKGRFTISRDNAKNTVYLQMKSLKPEDTAVYYSAKQIVSGRRVDRNDYWGQGTQVSVSS
METRIC NAME: polyreactivity (PSR sort gate)
RECORDED VALUE: low polyreactivity
--
ENTRY SEQUENCE: QVQLVESGGGLVQAGGSLRLSCAASGSIFNYTMGWYRQGPAQERQLVAVISRSGGRTYYADSVKGRFTISRDNAKNTVYLQMNSLKPEDTAVYYCATDGHNGYYGRYDYWGHGTQVTVSS
METRIC NAME: polyreactivity (PSR sort gate)
RECORDED VALUE: high polyreactivity

// batch mode: one polyreactivity (PSR sort gate) value per listed entry
1. QVQLVESGGGLVQAGGSLRLSCAASGSPFFRNAMGWYRPAPGTERELVADISASGGSTYYADSVKGRFTLSRDNAKNTVNLQMNSLKPEDTAVYSCNALYIYSYNYLTMDYWGQGTQVTVSS
2. QVQLVESGGGLVQAGGSLRLSCAASGLIFSYYAMGWYRQAPGKERELVAAITGSGGTTYYADSVKGRFTISRDNAKNTVYLQMNSLKPEDTAVYYCATPPPEVWQRWYREYDYWGQGTQVTVSS
3. QVQLLESGGGLVQAGGSLRLSCAASGRIFNPYAMGWFRQARGKERALVAASSSCGDRTFYADSVKGRFTISRDNAKNTVYLQMNSRKPEDTAVYFCNTVVYTRFRPWRYGYCGQGTQVTVSS

low polyreactivity
low polyreactivity
high polyreactivity

For every record below, what is its polyreactivity (PSR sort gate)?
1. QVQLVESGGGLVQAGGSLRLSCAASGIIFRSYTMGWYRQAPGKERELVASITRSGGITYYADSVKGRFTISRDNAKNTVYLQMNSLKPEDTAVYYCAARHRYYYQYRSDYWGQGTQVSVSS
2. QVQLVESGGGLVQAGGSLRLSCAASGSIFKANAMGWYRQAPGKERELVATISTSSGGTYYADSVKGRFTISRDNAKNTVYLQMNSLKPEDTAVYYCAALTYPPFYWGQGTQVTVSS

1: high polyreactivity; 2: high polyreactivity

// for each sequence in input: emit polyreactivity (PSR sort gate)
1. QVQLVESGGGLVQAGGSLRLSCAASGFTFGVYAMGWYRQAPGKERELVAAITRSGGSTYYADSVKGRFTISRDNAKNTVYLQMNSLKPEDTAVYYCASRARDHYGYWGQGTQVTVSS
2. QVQLVESGGGLVQAGGSLRLSCAASGRIFVYNVMGWYRQAPGKERELVAAISWGTGSTYADSVKGRFTISRDNAKNTVYLQMNSLKPEDTAVYYCAADWLSTKNDYWGQGTQVTVSS
3. QVQLQESGGGLVQVGGSQRLSCAASGNNFYNYAMGWYRHAQGKEREFDATINHGTSINYADSVKGRFTISRDNAKNTVYLQMNSLKPEDTAVYYCAADLSWTDNLFYWGQGTQVTVSS

1: high polyreactivity; 2: low polyreactivity; 3: low polyreactivity

For each of the sequences below, note its polyreactivity (PSR sort gate).
1. QVQLVESGGGLVQAGGSLRLSCAASGMGWYRQAPGKERELVATITTGGTYADSVKGRFTISRDNAKNTVYLQMNSLKPEDTAVYYCAADGLGSVYYLRYNYWGQGTQVTVSS
2. QVQLVESGGGLVQAGGSLRLSCAASGRIFKSYAMGWYRQAPGKERELVASITWSGGRTYYADSVKGRFTISRDNAKNTVYLQMNSLIPEDTAVYYCAARTYSYGSILKYYYWGQGTQVTVSS

1. low polyreactivity
2. high polyreactivity
